Cited source: the supplement of paper PMC7877785

method: self-splicing fitness, log relative to wild type (ln ratio); higher = more splicing; Tetrahymena group I intron in knt gene, E. coli kanamycin selection, DiMSum; sequences stand for … in CUCUCU…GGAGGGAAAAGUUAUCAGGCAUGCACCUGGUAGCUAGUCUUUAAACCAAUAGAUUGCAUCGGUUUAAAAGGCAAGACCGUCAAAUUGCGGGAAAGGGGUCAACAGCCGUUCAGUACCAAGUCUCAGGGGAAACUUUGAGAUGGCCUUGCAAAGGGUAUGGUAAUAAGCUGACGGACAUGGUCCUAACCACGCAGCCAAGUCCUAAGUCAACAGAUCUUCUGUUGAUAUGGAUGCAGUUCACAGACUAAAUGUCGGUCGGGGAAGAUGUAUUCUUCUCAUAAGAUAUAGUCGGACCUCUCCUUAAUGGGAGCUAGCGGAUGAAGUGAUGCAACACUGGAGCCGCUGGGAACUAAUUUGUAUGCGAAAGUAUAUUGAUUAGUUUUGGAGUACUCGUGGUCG;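 also: selection with 25 µg/mL kanamycin versus none on LB agar overnight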
runConditions: 30 °C
propertyLabel: self-splicing fitness (ln)

Here are 3 sequences together with their reported answers.
{"columns": ["itemSequence", "self-splicing fitness (ln)"],
 "data": [
  ["CGCUAGCAAUAUUACGUAUA", -3.36],
  ["AGCCAGCAAUAUUACGCCAA", -3.36],
  ["GGUCAGCAAUAUUACGUGUC", -0.998]
]}

Query: Form field: reported self-splicing fitness (ln) of AGGCAGCAAUAUUACGUAAA
Response: -2

Query: Form field: reported self-splicing fitness (ln) of ACGGAGCAAUAUUACGGGAG
Response: -3.09

Query: Form field: reported self-splicing fitness (ln) of GUCAAGCAAUAUUACGUGAA
Response: -1.01

Query: Form field: reported self-splicing fitness (ln) of UGGAAGCAAUAUUACGUGAA
Response: -1.33

Query: Form field: reported self-splicing fitness (ln) of GCGAAGCAAUAUUACGAGUG
Response: -1.09

Query: Form field: reported self-splicing fitness (ln) of AUGUAGCAAUAUUACGAUUA
Response: -0.6
